Assay: Inhibition of PAF-induced platelet aggregation
readout-kind: log10(IC50) (log10 of the value in nM)
Please be aware that the numbers have been log10-transformed from IC50 in nM.

Sample answers from the record:
INSERT INTO measurements (molecule, readout_kind, measured_result) VALUES
  ('Cc1ncccc1C(C#N)N1CCN(C(=O)CSC(c2ccccc2)c2ccccc2)CC1 (stereo not given)', 'log10(IC50)', 1.90),
  ('CNC(=O)C(CC(=O)N1CCN(C(C#N)c2cccnc2C)CC1)c1ccccc1 (stereo not given)', 'log10(IC50)', 4.18),
  ('Cc1ncccc1C(C#N)N1CCN(C(=O)CNC(C)(c2ccccc2)c2ccccc2)CC1 (stereo not given)', 'log10(IC50)', 1.93),
  ('COC(=O)N(Cc1ccccc1)C(CC(=O)N1CCN(C(C#N)c2cccnc2C)CC1)c1ccccc1 (stereo not given)', 'log10(IC50)', 1.83);

Consider the additional molecule presented here.
# molecule Cc1ncccc1C(C#N)N1CCN(C(=O)CC(NC(=O)Oc2ccccc2)c2ccccc2)CC1 (stereo not given) ; its log10(IC50) = 1.20

====

Assay: In vitro inhibition of PAF-induced platelet aggregation in male rabbits
IC50 values for the molecules below.
# value in nM; strip the unit string

Sample answers from the record:
INSERT INTO measurements (molecule, measured_result) VALUES
  ('Cc1ncccc1C(C#N)N1CCN(C(=O)CC(c2ccccc2)C(F)(F)F)CC1 (stereo not drawn)', 12),
  ('Cc1ncccc1C(C#N)N1CCN(C(=O)CC(c2ccccc2)N2CCCC2)CC1 (stereo not drawn)', 18),
  ('Cc1ncccc1C(C#N)N1CCN(C(=O)CC(c2ccccc2)n2cccc2)CC1 (stereo not drawn)', 350),
  ('Cc1ncccc1C(C#N)N1CCN(C(=O)CC(NS(=O)(=O)c2ccccc2)c2ccccc2)CC1 (stereo not drawn)', 18);

# molecule Cc1ncccc1C(C#N)N1CCN(C(=O)CC(O)(c2ccccc2)C(F)(F)F)CC1 (stereo not drawn) ; its IC50 = 14

# molecule Cc1ncccc1C(C#N)N1CCN(C(=O)CS(=O)(=O)C(c2ccccc2)c2ccccc2)CC1 (stereo not drawn) ; its IC50 = 26

# molecule Cc1ncccc1C(C#N)N1CCN(C(=O)CC(NC(=O)c2ncccc2O)c2ccccc2)CC1 (stereo not drawn) ; its IC50 = 130

# molecule Cc1ncccc1C(C#N)N1CCN(C(=O)CN(C(c2ccccc2)c2ccccc2)S(C)(=O)=O)CC1 (stereo not drawn) ; its IC50 = 82

====

Experiment: Inhibition of PAF-induced platelet aggregation
readout-kind: pIC50
Here pIC50 is given on a logarithmic scale as minus log10 of the concentration in mol/L.

INSERT INTO measurements (compound, readout_kind, measured_result) VALUES
  ('CCOC(=O)NC(CC(=O)N1CCN(C(C#N)c2cccnc2C)CC1)c1ccccc1 (stereo not given)', 'pIC50', 7.85),
  ('Cc1ncccc1C(C#N)N1CCN(C(=O)CNC(c2ccccc2)c2ccccc2)CC1 (stereo not given)', 'pIC50', 7.40),
  ('CC(=O)N(CC(=O)N1CCN(C(C#N)c2cccnc2C)CC1)C(c1ccccc1)c1ccccc1 (stereo not given)', 'pIC50', 7.70),
  ('Cc1ncccc1C(C#N)N1CCN(C(=O)CC(NC(=O)c2cccnc2)c2ccccc2)CC1 (stereo not given)', 'pIC50', 8.05);

Consider the additional compound presented here.
# compound Cc1ncccc1C(C#N)N1CCN(C(=O)CC(NC(N)=O)c2ccccc2)CC1 (stereo not given) ; its pIC50 = 6.33

All figures here come from BindingDB's records for doi:10.1021/jm00072a019.
